# Test system: Tumor Cell line
# assay: Evaluation for cytotoxicity to human tumor cell lines.
# Type: functional, cell-based
parameter measured: IC50 (µM)
Give bare numbers, in µM.

Recorded IC50, per entry:
CN(C)Cc1cc(C(=O)/C=C/c2ccc([N+](=O)[O-])cc2)cc(CN(C)C)c1O    8.91
O=C(/C=C/c1ccccc1)c1ccccc1    8.32
CN(C)Cc1cc(C(=O)/C=C/c2ccccc2Cl)cc(CN(C)C)c1O    9.55

Next molecule, IC50 to be filled in.
Any idea what IC50 was measured for CN(C)Cc1cc(C(=O)/C=C/c2c(F)cccc2Cl)cc(CN(C)C)c1O ? 9.12
